The values you see were collected from ChEMBL document CHEMBL4699489.

molecular target: Neurotensin receptor type 1 (Homo sapiens, UniProt P30989); assay: Agonist activity at human NTS1 expressed in HEK293 cells co-expressing Galphaq/RlucII/GFP10-Ggamma1/Gbeta1 assessed as increase in Galphaq activation incubated for 10 mins in presence of coelenterazine 400A by BRET assay
Sequence (P30989 whole entry): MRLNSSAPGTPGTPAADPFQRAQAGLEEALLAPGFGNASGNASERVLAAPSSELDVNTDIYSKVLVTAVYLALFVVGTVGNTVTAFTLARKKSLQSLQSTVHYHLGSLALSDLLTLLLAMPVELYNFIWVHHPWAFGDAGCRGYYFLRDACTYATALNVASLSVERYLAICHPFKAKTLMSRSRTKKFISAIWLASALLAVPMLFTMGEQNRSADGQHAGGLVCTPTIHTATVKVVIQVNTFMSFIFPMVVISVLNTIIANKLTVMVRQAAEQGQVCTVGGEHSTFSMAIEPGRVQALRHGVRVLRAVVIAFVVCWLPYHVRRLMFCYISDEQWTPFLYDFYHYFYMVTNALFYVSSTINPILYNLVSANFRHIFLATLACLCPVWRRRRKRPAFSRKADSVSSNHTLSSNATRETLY
Numbered stars: 1 amine (or outer) side, 2 acyl side, 3 side chain; on linkers, the order of the positions; unused ones are H or OH. Square brackets hold non-standard residues; d marks the D form. Peptide text beside a SMILES is read from it. X1 = O=C1[C@@H](N[*:1])Cc2ccccc2CN1CCC(=O)[*:2]; X2 = O=C([C@@H]1Cc2cc(O)ccc2CN1[*:1])[*:2]; Dmt = Cc1cc(O)cc(C)c1C[C@H](N)C(=O)O; mTyr = N[C@@H](Cc1cccc(O)c1)C(=O)O; β3hR = N=C(N)NCCC[C@H](N)CC(=O)O; Tle = CC(C)(C)[C@H](N)C(=O)O; β3hK = NCCCC[C@H](N)CC(=O)O
Threshold 1 nM. EC50 below it: label 1. EC50 at it or above: label 0.

Is the reported EC50 for Cc1cc(O)cc(C)c1C[C@H](N)C(=O)N[C@H](CCCCN)C(=O)N[C@@H](Cc1ccccc1)C(=O)N[C@@H](Cc1ccccc1)C(=O)N[C@@H](CCCCN)C(=O)N[C@@H](CCCCN)C(=O)N1CCC[C@H]1C(=O)N[C@@H](Cc1ccccc1)C(=O)N[C@H](C(=O)N[C@@H](CC(C)C)C(=O)O)C(C)(C)C (H-[Dmt][dK]FFKKPF[Tle]L-OH) strictly below 1 nM?
label 0

Is the reported EC50 for Cc1cc(O)cc(C)c1C[C@H](NC(=O)[C@@H]1CCCN1C(=O)[C@H](CCCNC(=N)N)NC(=O)C[C@H](CCCNC(=N)N)NC(=O)CCN1Cc2ccccc2C[C@H](NC(=O)[C@@H](CCCNC(=N)N)NC(=O)[C@@H](N)Cc2c(C)cc(O)cc2C)C1=O)C(=O)N[C@H](C(=O)N[C@@H](CC(C)C)C(=O)O)C(C)(C)C (H-[Dmt][dR][X1][β3hR]RP[Dmt][Tle]L-OH) strictly below 1 nM?
label 1

Is the reported EC50 for Cc1cc(O)cc(C)c1C[C@H](N)C(=O)N[C@H](CCCNC(=N)N)C(=O)N[C@H]1Cc2ccccc2CN(CCC(=O)N[C@@H](CCCCN)C(=O)N[C@@H](CCCCN)C(=O)N2CCC[C@H]2C(=O)N[C@@H](Cc2cccc(O)c2)C(=O)N[C@H](C(=O)N[C@@H](CC(C)C)C(=O)O)C(C)(C)C)C1=O (H-[Dmt][dR][X1]KKP[mTyr][Tle]L-OH) strictly below 1 nM?
label 0

Is the reported EC50 for Cc1cc(O)cc(C)c1C[C@H](N)C(=O)N[C@H](CCCNC(=N)N)C(=O)N[C@H]1Cc2ccccc2CN(CCC(=O)N[C@@H](CCCCN)C(=O)N[C@@H](CCCCN)C(=O)N2CCC[C@H]2C(=O)N[C@@H](Cc2ccc(O)cc2)C(=O)N[C@H](C(=O)N[C@@H](CC(C)C)C(=O)O)C(C)(C)C)C1=O (H-[Dmt][dR][X1]KKPY[Tle]L-OH) strictly below 1 nM?
label 1

Is the reported EC50 for Cc1cc(O)cc(C)c1C[C@H](NC(=O)[C@@H]1CCCN1C(=O)[C@H](CCCNC(=N)N)NC(=O)[C@H](CCCNC(=N)N)NC(=O)CCN1Cc2ccccc2C[C@H](NC(=O)[C@@H](CCCNC(=N)N)NC(=O)[C@@H](N)Cc2c(C)cc(O)cc2C)C1=O)C(=O)N[C@H](C(=O)N[C@@H](CC(C)C)C(=O)O)C(C)(C)C (H-[Dmt][dR][X1]RRP[Dmt][Tle]L-OH) strictly below 1 nM?
label 0

Is the reported EC50 for Cc1cc(O)cc(C)c1C[C@H](N)C(=O)N[C@H](CCCNC(=N)N)C(=O)N[C@H]1Cc2ccccc2CN(CCC(=O)N[C@@H](CCCNC(=N)N)C(=O)N[C@@H](CCCNC(=N)N)C(=O)N2CCC[C@H]2C(=O)N[C@@H](Cc2ccc(O)cc2)C(=O)N[C@H](C(=O)N[C@@H](CC(C)C)C(=O)O)C(C)(C)C)C1=O (H-[Dmt][dR][X1]RRPY[Tle]L-OH) strictly below 1 nM?
label 1

Is the reported EC50 for Cc1cc(O)cc(C)c1C[C@H](N)C(=O)N[C@H](CCCNC(=N)N)C(=O)N[C@H]1Cc2ccccc2CN(CCC(=O)N[C@@H](CCCNC(=N)N)C(=O)N[C@@H](CCCNC(=N)N)C(=O)N2CCC[C@H]2C(=O)N[C@@H](Cc2cccc(O)c2)C(=O)N[C@H](C(=O)N[C@@H](CC(C)C)C(=O)O)C(C)(C)C)C1=O (H-[Dmt][dR][X1]RRP[mTyr][Tle]L-OH) strictly below 1 nM?
label 0

Is the reported EC50 for Cc1cc(O)cc(C)c1C[C@H](NC(=O)[C@@H]1CCCN1C(=O)[C@H](CCCCN)NC(=O)[C@H](CCCCN)NC(=O)CCN1Cc2ccccc2C[C@H](NC(=O)[C@@H](CCCNC(=N)N)NC(=O)[C@@H](N)Cc2c(C)cc(O)cc2C)C1=O)C(=O)N[C@H](C(=O)N[C@@H](CC(C)C)C(=O)O)C(C)(C)C (H-[Dmt][dR][X1]KKP[Dmt][Tle]L-OH) strictly below 1 nM?
label 0

Is the reported EC50 for Cc1cc(O)cc(C)c1C[C@H](NC(=O)[C@@H]1CCCN1C(=O)[C@H](CCCCN)NC(=O)C[C@H](CCCCN)NC(=O)CCN1Cc2ccccc2C[C@H](NC(=O)[C@@H](CCCNC(=N)N)NC(=O)[C@@H](N)Cc2c(C)cc(O)cc2C)C1=O)C(=O)N[C@H](C(=O)N[C@@H](CC(C)C)C(=O)O)C(C)(C)C (H-[Dmt][dR][X1][β3hK]KP[Dmt][Tle]L-OH) strictly below 1 nM?
label 0

Is the reported EC50 for Cc1cc(O)cc(C)c1C[C@H](N)C(=O)N[C@H](CCCNC(=N)N)C(=O)N[C@H]1Cc2ccccc2CN(CCC(=O)N[C@@H](CCCNC(=N)N)C(=O)N[C@@H](CCCNC(=N)N)C(=O)N2CCC[C@H]2C(=O)N2Cc3ccc(O)cc3C[C@H]2C(=O)N[C@H](C(=O)N[C@@H](CC(C)C)C(=O)O)C(C)(C)C)C1=O (H-[Dmt][dR][X1]RRP[X2][Tle]L-OH) strictly below 1 nM?
label 0

* * *

target: Delta-type opioid receptor (Homo sapiens, UniProt P41143); assay: Agonist activity at human DOR stably expressed in CHO cell membranes assessed as stimulation of [35S]-GTPgammaS binding incubated for 1 hr by liquid scintillation counting assay relative to DPDPE; assay type: functional; conditions: filed as agonist, time 60.0 min
Sequence (P41143 whole entry): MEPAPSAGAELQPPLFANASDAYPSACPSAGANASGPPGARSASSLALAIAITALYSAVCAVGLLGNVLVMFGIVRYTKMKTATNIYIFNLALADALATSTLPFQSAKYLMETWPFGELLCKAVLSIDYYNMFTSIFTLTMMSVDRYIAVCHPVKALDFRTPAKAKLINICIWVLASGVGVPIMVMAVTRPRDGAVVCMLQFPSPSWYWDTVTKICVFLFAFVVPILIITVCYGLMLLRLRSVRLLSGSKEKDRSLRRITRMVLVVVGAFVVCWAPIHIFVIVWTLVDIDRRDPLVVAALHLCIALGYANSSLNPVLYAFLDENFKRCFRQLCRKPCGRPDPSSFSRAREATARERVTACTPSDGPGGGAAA
Numbered stars: 1 amine (or outer) side, 2 acyl side, 3 side chain; on linkers, the order of the positions; unused ones are H or OH. Square brackets hold non-standard residues; d marks the D form. Peptide text beside a SMILES is read from it. X1 = O=C1[C@@H](N[*:1])Cc2ccccc2CN1CCC(=O)[*:2]; X2 = O=C([C@@H]1Cc2cc(O)ccc2CN1[*:1])[*:2]; Dmt = Cc1cc(O)cc(C)c1C[C@H](N)C(=O)O; Tle = CC(C)(C)[C@H](N)C(=O)O; β3hK = NCCCC[C@H](N)CC(=O)O
Assignment: determine reported Emax for the given compounds.
Field format: number, assumed %, no unit text.

Please look up its Emax: Cc1cc(O)cc(C)c1C[C@H](N)C(=O)N[C@H](CCCNC(=N)N)C(=O)N[C@H]1Cc2ccccc2CN(CCC(=O)N[C@@H](CCCCN)C(=O)N[C@@H](CCCCN)C(=O)N2CCC[C@H]2C(=O)N2Cc3ccc(O)cc3C[C@H]2C(=O)N[C@H](C(=O)N[C@@H](CC(C)C)C(=O)O)C(C)(C)C)C1=O (H-[Dmt][dR][X1]KKP[X2][Tle]L-OH)
91

Please look up its Emax: Cc1cc(O)cc(C)c1C[C@H](NC(=O)[C@@H]1CCCN1C(=O)[C@H](CCCNC(=N)N)NC(=O)[C@H](CCCNC(=N)N)NC(=O)CCN1Cc2ccccc2C[C@H](NC(=O)[C@@H](CCCNC(=N)N)NC(=O)[C@@H](N)Cc2c(C)cc(O)cc2C)C1=O)C(=O)N[C@H](C(=O)N[C@@H](CC(C)C)C(=O)O)C(C)(C)C (H-[Dmt][dR][X1]RRP[Dmt][Tle]L-OH)
91

Please look up its Emax: Cc1cc(O)cc(C)c1C[C@H](NC(=O)[C@@H]1CCCN1C(=O)[C@H](CCCCN)NC(=O)C[C@H](CCCCN)NC(=O)CCN1Cc2ccccc2C[C@H](NC(=O)[C@@H](CCCNC(=N)N)NC(=O)[C@@H](N)Cc2c(C)cc(O)cc2C)C1=O)C(=O)N[C@H](C(=O)N[C@@H](CC(C)C)C(=O)O)C(C)(C)C (H-[Dmt][dR][X1][β3hK]KP[Dmt][Tle]L-OH)
97
